These data points were gathered from paper PMC13070491.

# Experiment: Plasma pharmacokinetic parameters (LC-MS/MS)
# Condition set: human, plasma, oral, 5 mg, Tmax, total everolimus plasma; median
Measured metric: Tmax (h)
Numbers only, in h.

[Q] Report Tmax, nothing else, for this compound: CO[C@H]1C[C@@H]2CC[C@@H](C)[C@@](O)(O2)C(=O)C(=O)N2CCCC[C@H]2C(=O)O[C@H]([C@H](C)C[C@@H]2CC[C@@H](OCCO)[C@H](OC)C2)CC(=O)[C@H](C)/C=C(\C)[C@@H](O)[C@@H](OC)C(=O)[C@H](C)C[C@H](C)/C=C/C=C/C=C/1C
[A] 2.03

----------
# Experiment: Plasma pharmacokinetic parameters (LC-MS/MS)
# Condition set: human, plasma, oral, 70 mg, Tmax, total everolimus plasma; median
Measured metric: Tmax
# answer = value followed by unit

[Q] Answer with the recorded Tmax of CO[C@H]1C[C@@H]2CC[C@@H](C)[C@@](O)(O2)C(=O)C(=O)N2CCCC[C@H]2C(=O)O[C@H]([C@H](C)C[C@@H]2CC[C@@H](OCCO)[C@H](OC)C2)CC(=O)[C@H](C)/C=C(\C)[C@@H](O)[C@@H](OC)C(=O)[C@H](C)C[C@H](C)/C=C/C=C/C=C/1C [Everolimus, everolimus] only.
[A] 1.93 h

----------
# Experiment: CNS penetration: total and unbound drug concentrations in tumor regions, CSF and plasma (LC-MS/MS, equilibrium dialysis)
# Condition set: human, non-enhancing tumor, oral, Total everolimus, MIN, 5 mg QD 5 days
Measured metric: concentration at 5 days (nM)
Numbers only, in nM.

[Q] Please report the measured concentration at 5 days for CO[C@H]1C[C@@H]2CC[C@@H](C)[C@@](O)(O2)C(=O)C(=O)N2CCCC[C@H]2C(=O)O[C@H]([C@H](C)C[C@@H]2CC[C@@H](OCCO)[C@H](OC)C2)CC(=O)[C@H](C)/C=C(\C)[C@@H](O)[C@@H](OC)C(=O)[C@H](C)C[C@H](C)/C=C/C=C/C=C/1C [Everolimus, everolimus]
[A] 9.2

----------
# Experiment: CNS penetration: total and unbound drug concentrations in tumor regions, CSF and plasma (LC-MS/MS, equilibrium dialysis)
# Condition set: human, enhancing tumor, oral, Unbound Ribociclib concentration, Minimum, 600 mg QD 5 days
Measured metric: concentration at 5 days (nM)
One number for each entry, in nM.

[Q] Consider the molecule CN(C)C(=O)c1cc2cnc(Nc3ccc(N4CCNCC4)cn3)nc2n1C1CCCC1 and give its recorded concentration at 5 days.
[A] 4.7

----------
# Experiment: CNS penetration: total and unbound drug concentrations in tumor regions, CSF and plasma (LC-MS/MS, equilibrium dialysis)
# Condition set: human, enhancing tumor, oral, Total Ribociclib concentration, Median, 600 mg QD 5 days
Measured metric: concentration at 5 days (µM)
One number for each entry, in µM.

[Q] Supply concentration at 5 days value. Item: CN(C)C(=O)c1cc2cnc(Nc3ccc(N4CCNCC4)cn3)nc2n1C1CCCC1
[A] 14.8

----------
# Experiment: CNS penetration: total and unbound drug concentrations in tumor regions, CSF and plasma (LC-MS/MS, equilibrium dialysis)
# Condition set: human, CSF, oral, Unbound Ribociclib concentration, Median, 400 mg QD 5 days
Measured metric: concentration at 5 days (nM)
Answers are plain numbers, in nM.

[Q] For the compound CN(C)C(=O)c1cc2cnc(Nc3ccc(N4CCNCC4)cn3)nc2n1C1CCCC1 , give its reported concentration at 5 days.
[A] 82

----------
# Experiment: CNS penetration: total and unbound drug concentrations in tumor regions, CSF and plasma (LC-MS/MS, equilibrium dialysis)
# Condition set: human, non-enhancing tumor, oral, Total everolimus, MAX, 50 mg single dose
Measured metric: concentration at 5 days (nM)
Numbers only, in nM.

[Q] Fill in concentration at 5 days for record CO[C@H]1C[C@@H]2CC[C@@H](C)[C@@](O)(O2)C(=O)C(=O)N2CCCC[C@H]2C(=O)O[C@H]([C@H](C)C[C@@H]2CC[C@@H](OCCO)[C@H](OC)C2)CC(=O)[C@H](C)/C=C(\C)[C@@H](O)[C@@H](OC)C(=O)[C@H](C)C[C@H](C)/C=C/C=C/C=C/1C
[A] 25.1

----------
# Experiment: Plasma pharmacokinetic parameters (LC-MS/MS)
# Condition set: human, plasma, oral, 10 mg, T1/2, total everolimus plasma; mean
Measured metric: half-life (h)
Answers are plain numbers, in h.

[Q] Please list half-life recorded for the compound CO[C@H]1C[C@@H]2CC[C@@H](C)[C@@](O)(O2)C(=O)C(=O)N2CCCC[C@H]2C(=O)O[C@H]([C@H](C)C[C@@H]2CC[C@@H](OCCO)[C@H](OC)C2)CC(=O)[C@H](C)/C=C(\C)[C@@H](O)[C@@H](OC)C(=O)[C@H](C)C[C@H](C)/C=C/C=C/C=C/1C
[A] 21.8

----------
# Experiment: CNS penetration: total and unbound drug concentrations in tumor regions, CSF and plasma (LC-MS/MS, equilibrium dialysis)
# Condition set: human, non-enhancing tumor, oral, Total Ribociclib concentration, Minimum, 400 mg QD 5 days
Measured metric: concentration at 5 days
Answer format: number, then unit.

[Q] Supply reported concentration at 5 days belonging to this compound: CN(C)C(=O)c1cc2cnc(Nc3ccc(N4CCNCC4)cn3)nc2n1C1CCCC1
[A] 1370 nM

----------
# Experiment: Plasma pharmacokinetic parameters (LC-MS/MS)
# Condition set: human, plasma, oral, 10 mg, T1/2, total everolimus plasma; median
Measured metric: half-life (h)
Answers are plain numbers, in h.

[Q] For the molecule CO[C@H]1C[C@@H]2CC[C@@H](C)[C@@](O)(O2)C(=O)C(=O)N2CCCC[C@H]2C(=O)O[C@H]([C@H](C)C[C@@H]2CC[C@@H](OCCO)[C@H](OC)C2)CC(=O)[C@H](C)/C=C(\C)[C@@H](O)[C@@H](OC)C(=O)[C@H](C)C[C@H](C)/C=C/C=C/C=C/1C , give its measured half-life value.
[A] 21.8

----------
# Experiment: CNS penetration: total and unbound drug concentrations in tumor regions, CSF and plasma (LC-MS/MS, equilibrium dialysis)
# Condition set: human, enhancing tumor and plasma, oral, 60 mg
Measured metric: Kp
One number for each entry.

[Q] Please supply the value of reported Kp for the item CO[C@H]1C[C@@H]2CC[C@@H](C)[C@@](O)(O2)C(=O)C(=O)N2CCCC[C@H]2C(=O)O[C@H]([C@H](C)C[C@@H]2CC[C@@H](OCCO)[C@H](OC)C2)CC(=O)[C@H](C)/C=C(\C)[C@@H](O)[C@@H](OC)C(=O)[C@H](C)C[C@H](C)/C=C/C=C/C=C/1C
[A] 0.33

----------
# Experiment: Plasma pharmacokinetic parameters (LC-MS/MS)
# Condition set: human, plasma, oral, 600 mg, Unbound Ribociclib Tmax, Mean
Measured metric: Tmax (h)
Give bare numbers, in h.

[Q] Give Tmax for CN(C)C(=O)c1cc2cnc(Nc3ccc(N4CCNCC4)cn3)nc2n1C1CCCC1
[A] 4.76

----------
# Experiment: Plasma pharmacokinetic parameters (LC-MS/MS)
# Condition set: human, plasma, oral, 60 mg, Cmax, total everolimus plasma; mean
Measured metric: Cmax (nM)
Numbers only, in nM.

[Q] Entry CO[C@H]1C[C@@H]2CC[C@@H](C)[C@@](O)(O2)C(=O)C(=O)N2CCCC[C@H]2C(=O)O[C@H]([C@H](C)C[C@@H]2CC[C@@H](OCCO)[C@H](OC)C2)CC(=O)[C@H](C)/C=C(\C)[C@@H](O)[C@@H](OC)C(=O)[C@H](C)C[C@H](C)/C=C/C=C/C=C/1C [Everolimus, everolimus] needs its Cmax filled in; supply it.
[A] 190

----------
# Experiment: Plasma pharmacokinetic parameters (LC-MS/MS)
# Condition set: total everolimus plasma; dose 2.5 mg; median
Measured metric: Cmax (nM)
Numbers only, in nM.

[Q] Specify Cmax for CO[C@H]1C[C@@H]2CC[C@@H](C)[C@@](O)(O2)C(=O)C(=O)N2CCCC[C@H]2C(=O)O[C@H]([C@H](C)C[C@@H]2CC[C@@H](OCCO)[C@H](OC)C2)CC(=O)[C@H](C)/C=C(\C)[C@@H](O)[C@@H](OC)C(=O)[C@H](C)C[C@H](C)/C=C/C=C/C=C/1C and stop.
[A] 30

----------
# Experiment: CNS penetration: total and unbound drug concentrations in tumor regions, CSF and plasma (LC-MS/MS, equilibrium dialysis);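 also: drug levels in patient tumor tissue from contrast-enhancing and non-enhancing regions sampled under MRI-guided neuronavigation, with plasma and CSF drawn during surgical resection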
# Condition set: human, non-enhancing tumor, oral, Total Ribociclib concentration, Maximum, 600 mg QD 5 days
Measured metric: concentration at 5 days (µM)
One number for each entry, in µM.

[Q] Report measured concentration at 5 days; entry is CN(C)C(=O)c1cc2cnc(Nc3ccc(N4CCNCC4)cn3)nc2n1C1CCCC1
[A] 41.6

----------
# Experiment: Plasma pharmacokinetic parameters (LC-MS/MS)
# Condition set: human, plasma, oral, 70 mg, AUClast, total everolimus plasma; median
Measured metric: AUC(0-t)

[Q] Determine from records and report AUC(0-t) for CO[C@H]1C[C@@H]2CC[C@@H](C)[C@@](O)(O2)C(=O)C(=O)N2CCCC[C@H]2C(=O)O[C@H]([C@H](C)C[C@@H]2CC[C@@H](OCCO)[C@H](OC)C2)CC(=O)[C@H](C)/C=C(\C)[C@@H](O)[C@@H](OC)C(=O)[C@H](C)C[C@H](C)/C=C/C=C/C=C/1C [Everolimus, everolimus]
[A] 1.27 µM·h
